// values below are reported GI50
- System: OVCAR-8
- Experiment Description: NCI tumour cell line growth inhibition, 48 h
Active and inactive are the calls of the source. No stated cut-off is given here; in the data, active = GI50 up to about 1.1 µM and inactive = higher.

Solved cases below.
| Compound | GI50 |
| --- | --- |
| CN(CCO)/N=N/c1n[nH]cc1C(N)=O | > 100 µM (inactive) |
| O=[N+]([O-])c1ccc(Oc2c(Cl)cc(S(=O)(=O)N/C(=N\O)Nc3ccc(Cl)cc3)cc2Cl)cc1 | 12.6 µM (inactive) |
| CCCCCCCCC#CCCCCCCC(F)C(=O)O (stereo unspecified) | > 100 µM (inactive) |
| CC[C@@H]1NC(C(=O)OC)Cc2c1[nH]c1ccccc21 (stereo partly specified) | > 100 µM (inactive) |
| [O-][S+]1C(=c2ccc(=C3Sc4ccccc4S3)cc2)Sc2ccccc21 (stereo unspecified) | 17.9 µM (inactive) |
| Nc1ccc(C(c2ccccc2)(c2ccccc2)c2ccccc2)cc1 | 33.9 µM (inactive) |
| O=C1C2CN(Cc3ccccc3)CC1CN(CC1CC1)C2 | > 100 µM (inactive) |
| CC(=O)OC12c3ccccc3C(c3ccccc31)C1C(=O)N(Nc3ccccc3)C(=O)C12 (stereo unspecified) | > 100 µM (inactive) |
| COCOC1/C=C/CCCCC(=O)C(C)C#CC1 (stereo unspecified) | 4.18 µM (inactive) |
| C/C(CC(O)(C(F)(F)F)C(F)(F)F)=N\NC(N)=S | > 10 µM (inactive) |

GI50 measured on N#Cc1nc(CCN2C(=O)c3ccccc3C2=O)oc1N = > 100 µM (inactive)

GI50 measured on c1ccc2c[n+](CCCCCCCCCC[n+]3ccc4ccccc4c3)ccc2c1 = > 10 µM (inactive)
